# Assay Procedure: CaMKII Cell-Based Activity: CaMKII activity in neonatal rat ventricular myocytes (NRVM) was measured by monitoring the phosphorylation level of phospholamban using high-content imaging. NRVMs were plated in a clear bottom 384-well plate in medium supplemented with 10% fetal bovine serum (FBS) and incubated at 37° C., 5% CO2 overnight. The medium was changed to a serum-free medium and compounds were dosed to the cells. The cells were incubated at 37° C., 5% CO2 for 4 hours and were then treated with 100 nM ATX-II (Alomone Labs) to activate CaMKII. 10 minutes after the addition of ATX-II, the cells were fixed with 4% formaldehyde followed by permeabilization with 0.1% triton X100. The fixed cells were stained with an anti-phospho-phospholamban primary antibody (Santa Cruz Biotechnology) and an Alexa488-labeled anti-rabbit IgG secondary antibody (Life Technologies Corporation) as well as Hoechst 33342 (Life Technologies Corporation). The cells were imaged using an ArrayScan VTI (Cellomics) and analyzed for cells containing a positive fluorescent signal at 485 nm, reported as % responder. The % responders were plotted against the compound concentration to determine the compounds EC50.
pEC50: −log10 of the molar value.
Quantity Kind: pEC50

Please report the recorded pEC50 for `CCN(CC)[C@@H](C)CNC(=O)c1cc(N[C@H](C)C(N)=O)nc(-c2cnn3ccc(-c4cccs4)nc23)c1` .
6.45

1. CCN(CC)[C@@H](C)CNC(=O)c1cc(OCc2ccc[n+]([O-])c2)nc(-c2cnn3ccc(-c4cccs4)nc23)c1
2. CCN[C@@H](C)CNC(=O)c1cc(-c2cnn3ccc(-c4cccs4)nc23)nc(N2CC(O)C2)c1
Which entry has a larger number for pEC50, 1 or 2 ? # reply format: chosen label
1
(1: 7.16, 2: 6.22)

A. CCN(CC)[C@@H](C)CNC(=O)c1cc(NS(=O)(=O)C2CC2)nc(-c2cnn3ccc(-c4cccs4)nc23)c1
B. CCN(CC)[C@@H](C)CNC(=O)c1cc(NCCN2CC(F)(F)C2)nc(-c2cnn3ccc(-c4cccs4)nc23)c1
C. CCN(CC)[C@@H](C)CNC(=O)c1cc(-c2cnn3ccc(-c4cccs4)nc23)nc(N2CC(OC(F)F)C2)c1
D. CCN(CC)[C@@H](C)CNC(=O)c1cc(-c2cnn3ccc(-c4cccs4)nc23)nc(N2CC[C@H]2C(=O)N2CC(S(C)(=O)=O)C2)c1
hey, can you rank those compounds up there by pEC50? biggest number first please List labels; respect the requested ordering.
C, B, A, D
